Where do the numbers come from? From the supplement of paper PMC10567573.

B1: PKD2L1 (parent)
chain: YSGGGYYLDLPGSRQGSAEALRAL

# Variants of: B1
# assay-notes: protein stability index of a GFP-peptide fusion (GPS, HEK-293T) (PSI 1-6); higher = more stable;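 also: lentivirally expressed fusions sorted by FACS into six bins by GFP to DsRed ratio, PSI derived from sequencing read proportions per bin multiplied by bin number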
# conditions-used: c terminus: a fixed tail appended
measurement-name: protein stability index
Answer with the value's number alone.

Example results:
A23R	2.26
P11G	3.43
G16R	1.98
Y1C	2.29
L10N	1.6

# input Which protein stability index value is on record for Y7C ?
# output 1.93

# input Which measured protein stability index value corresponds to S13C ?
# output 2.23

# input Please report the recorded protein stability index for Y7W .
# output 1.91

# input Data request, read-out protein stability index, for G5A
# output 1.14
